Where do the numbers come from? From patent US9809574B2.

# test-system: Bcl-2 protein (histag-Bcl-2, UniProtKB P10415) (Homo sapiens (Human), UniProt P10415)
# Sequence (P10415 whole entry): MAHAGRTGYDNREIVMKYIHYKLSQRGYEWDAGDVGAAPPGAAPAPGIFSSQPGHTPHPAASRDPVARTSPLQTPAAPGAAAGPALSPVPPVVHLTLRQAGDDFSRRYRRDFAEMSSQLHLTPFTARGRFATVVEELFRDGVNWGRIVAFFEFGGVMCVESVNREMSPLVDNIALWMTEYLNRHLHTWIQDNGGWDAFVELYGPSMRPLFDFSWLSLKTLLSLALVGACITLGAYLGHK
# run-description: Inhibition of Bcl-2 by the fluorescence polarisation technique
# Assay type: binding
# test-conditions: fluorescence polarisation test; incubation for 2 hours; read-out: IC50 (nM) Bcl-2 FP
Where a name gives a salt, the structure may show the parent alone.
Each entry below carries its recorded IC50.
measure-name: IC50

molecule: C[C@@H]1Cc2ccccc2CN1C(=O)c1cc2c(cc1-c1cc(C(=O)N(C)c3ccc(O)cc3)c3n1CCCC3)CCN(C(=O)Cc1ccc(CN(C)C)cc1)C2
measured-result: 4.8 nM
--
molecule: CCC(=O)N1Cc2cc(C(=O)N3Cc4ccccc4C[C@H]3CN3CCOCC3)c(-c3cc(C(=O)N(C)c4ccc(O)cc4)c4n3CCCC4)cc2C1 [Example 11, hydrochloride]
measured-result: 22 nM
--
molecule: COc1cc(C#N)ccc1OC(=O)N1CCc2cc(-c3cc(C(=O)N(C)c4ccc(O)cc4)c4n3CCCC4)c(C(=O)N3Cc4ccccc4C[C@H]3CN3CCOCC3)cc2C1
measured-result: 3 nM
--
molecule: Cc1c(C(=O)N(C)c2ccc(O)cc2)cc(-c2cc3c(cc2C(=O)N2Cc4ccccc4C[C@H]2C)CN(C(=O)[C@H](N)c2ccccc2)C3)n1C
measured-result: 5.9 nM
--
molecule: Cc1ccc(OC(=O)N2Cc3cc(C(=O)N4Cc5ccccc5C[C@H]4C)c(-c4cc(C(=O)N(C)c5ccc(O)cc5)c5n4CCCC5)cc3C2)cc1
measured-result: 5.7 nM
--
molecule: COc1ccc(CCCN2Cc3cc(C(=O)N4Cc5ccccc5C[C@H]4C)c(-c4cc(C(=O)N(C)c5ccc(O)cc5)c(C)n4C)cc3C2)cc1
measured-result: 21 nM
--
molecule: Cc1c(C(=O)N(C)c2ccc(O)cc2)cc(-c2cc3c(cc2C(=O)N2Cc4ccccc4C[C@H]2C)CN(C(=O)CC2CCCCC2)CC3)n1C
measured-result: 5.3 nM
--
molecule: C[C@@H]1Cc2ccccc2CN1C(=O)c1cc2c(cc1-c1cc(C(=O)N(c3ccccc3)c3ccc(O)cc3)c3n1CCCC3)CN(C(=O)OC(C)(C)C)C2
measured-result: 77 nM
--
molecule: Cc1c(C(=O)N(C)c2ccccc2)cc(-c2cc3c(cc2C(=O)N2Cc4ccccc4C[C@H]2CN2CCOCC2)CN(C(=O)Oc2cnc4c(ccn4C)c2)CC3)n1C
measured-result: 6.9 nM
--
molecule: Cc1c(C(=O)N(C)c2ccc(O)cc2)cc(-c2cc3c(cc2C(=O)N2Cc4ccccc4C[C@H]2C)CN(C(=O)Cc2ccc(C#N)cc2)CC3)n1C
measured-result: 4.2 nM
--
molecule: C[C@H](C(=O)N1CCc2cc(-c3cc(C(=O)N(C)c4ccc(O)cc4)c4n3CCCC4)c(C(=O)N3Cc4ccccc4C[C@H]3C)cc2C1)c1ccccc1
measured-result: 6.2 nM
--
molecule: Cc1ccc(CC(C)C(=O)N2Cc3cc(C(=O)N4Cc5ccccc5C[C@H]4C)c(-c4cc(C(=O)N(C)c5ccc(O)cc5)c5n4CCCC5)cc3C2)cc1 (some centres unmarked)
measured-result: 29 nM
--
molecule: Cc1c(C(=O)N(C)c2ccc(O)cc2)cc(-c2cc3c(cc2C(=O)N2Cc4ccccc4C[C@H]2C)CN(C(=O)COCc2ccccc2)C3)n1C
measured-result: 6.9 nM
--
molecule: Cc1c(C(=O)N(C)c2ccc(O)cc2)cc(-c2cc3c(cc2C(=O)N2Cc4ccccc4C[C@H]2C)CN(C(=O)Oc2ccc(N(C)CCN(C)C)cc2)CC3)n1C
measured-result: 4.5 nM
